Listed below: Ki values for each entry.
tested-system: UniProt C7C422
Sequence (C7C422 29-270, looked up): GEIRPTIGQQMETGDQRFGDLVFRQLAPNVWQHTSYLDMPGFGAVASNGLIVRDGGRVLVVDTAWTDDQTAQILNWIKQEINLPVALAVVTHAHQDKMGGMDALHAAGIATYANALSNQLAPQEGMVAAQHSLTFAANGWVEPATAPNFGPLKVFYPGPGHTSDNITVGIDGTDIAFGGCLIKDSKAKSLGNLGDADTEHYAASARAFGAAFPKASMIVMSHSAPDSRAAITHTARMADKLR
assay-remarks: In vitro enzyme inhibition assay, purified NDM-1 (imipenem hydrolysis, UV 299 nm)
Assay type: biochemical
assay-conditions: comparative study bands; read-out: Ki NDM-1 (comparative study)

NCC(=O)Nc1ccc(S(=O)(=O)Nc2scnc2C(=O)O)cc1OC(F)(F)F [Comp. G, reference compound] ... 30 to 100 nM
NNC(=O)Nc1ccc(S(=O)(=O)Nc2scnc2C(=O)O)cc1F [Comp. I, reference compound] ... 100 to 300 nM
COc1cc(S(=O)(=O)Nc2scnc2C(=O)O)ccc1NC(=O)CNC(=N)N ... 30 to 100 nM
N#Cc1cc(S(=O)(=O)Nc2scnc2C(=O)O)ccc1NC(=O)CN [Comp. D, reference compound] ... 30 to 100 nM
N=C(N)NNC(=O)Nc1ccc(S(=O)(=O)Nc2scnc2C(=O)O)cc1F ... < 30 nM
NCC(=O)Nc1c(F)cc(S(=O)(=O)Nc2scnc2C(=O)O)cc1F [Comp. B, reference compound] ... < 30 nM
N=C(N)NCC(=O)Nc1c(F)cc(S(=O)(=O)Nc2scnc2C(=O)O)cc1F ... < 30 nM

Field Ki (entry `N=C(N)NCC(=O)Nc1ccc(S(=O)(=O)Nc2scnc2C(=O)O)cc1Cl` ) reads 30 to 100 nM

====

Listed below: Ki values for each entry.
tested-system: UniProtKB Q5U7L7
assay-remarks: In vitro enzyme inhibition assay, purified VIM-2 (imipenem hydrolysis, UV 299 nm)
Type: biochemical
assay-conditions: comparative study bands; read-out: Ki VIM-2 (comparative study)

Here is how some compounds turned out for Ki.
NCC(=O)Nc1ccc(S(=O)(=O)Nc2scnc2C(=O)O)cc1OC(F)(F)F [Comp. G, reference compound] ... 20 to 50 nM
N#Cc1cc(S(=O)(=O)Nc2scnc2C(=O)O)ccc1NC(=O)CN [Comp. D, reference compound] ... 20 to 50 nM
NCC(=O)Nc1ncc(S(=O)(=O)Nc2scnc2C(=O)O)cc1F [Comp. C, reference compound] ... 100 to 150 nM

# context switch: different compound, same Ki
N=C(N)NCC(=O)Nc1ccc(S(=O)(=O)Nc2scnc2C(=O)O)cc1OC(F)(F)F [Example 18] on UniProtKB Q5U7L7 gives Ki = < 20 nM

====

Listed below: pKi values for each entry.
tested-system: IMP-1 (Serratia marcescens, UniProt P52699)
Sequence (P52699 19-246, looked up, species assumed): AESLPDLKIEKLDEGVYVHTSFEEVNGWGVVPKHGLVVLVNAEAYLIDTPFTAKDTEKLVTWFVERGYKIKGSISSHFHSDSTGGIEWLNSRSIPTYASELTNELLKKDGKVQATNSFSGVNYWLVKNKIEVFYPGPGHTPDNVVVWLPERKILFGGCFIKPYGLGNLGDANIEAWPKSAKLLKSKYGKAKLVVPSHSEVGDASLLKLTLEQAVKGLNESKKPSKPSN
assay-remarks: In vitro enzyme inhibition assay, purified IMP-1 (imipenem hydrolysis, UV 299 nm)
Assay type: biochemical
assay-conditions: comparative study bands; read-out: Ki IMP-1 (comparative study)
pKi: −log10 of the molar value.

Here is how some compounds turned out for pKi.
NNC(=O)Nc1ccc(S(=O)(=O)Nc2scnc2C(=O)O)cc1F [Comp. I, reference compound] ... 5.30 to 6.22
NCC(=O)Nc1ccc(S(=O)(=O)Nc2scnc2C(=O)O)cc1 [Comp. H, reference compound] ... 5.00 to 5.30
COc1cc(S(=O)(=O)Nc2scnc2C(=O)O)ccc1NC(=O)CN [Comp. E, reference compound] ... 5.30 to 6.22

Field pKi (entry `N=C(N)NCC(=O)Nc1ccc(S(=O)(=O)Nc2scnc2C(=O)O)cc1OC(F)(F)F` ) reads > 6.82

Field pKi (entry `N=C(N)NCC(=O)Nc1c(F)cc(S(=O)(=O)Nc2scnc2C(=O)O)cc1F` ) reads 5.30 to 6.22

These data points were gathered from patent US11299467B2.
